- Tested on: TNF-α-induced VCAM-1 protein expression
- method.description: ELISA of 24 h TNF-α-induced VCAM-1 protein expression on HUVEC
- Assay type: cell-based, human
- test.context: read-out: IC50, concentration of compound needed to inhibit 50% of the VCAM-1 expression, 10 ng/ml TNF-α, 24 h, ELISA, linear regression, average of at least three experiments
assay.endpoint: pIC50
One number for each entry, as −log10 of the molar value.

What value of measured pIC50 is listed for "Cn1c(-c2ccccc2)c[nH]c1=S" ?
4.18
